TESTED_SYSTEM: Histamine H4 receptor (Homo sapiens, UniProt Q9H3N8)
Sequence (Q9H3N8 whole entry): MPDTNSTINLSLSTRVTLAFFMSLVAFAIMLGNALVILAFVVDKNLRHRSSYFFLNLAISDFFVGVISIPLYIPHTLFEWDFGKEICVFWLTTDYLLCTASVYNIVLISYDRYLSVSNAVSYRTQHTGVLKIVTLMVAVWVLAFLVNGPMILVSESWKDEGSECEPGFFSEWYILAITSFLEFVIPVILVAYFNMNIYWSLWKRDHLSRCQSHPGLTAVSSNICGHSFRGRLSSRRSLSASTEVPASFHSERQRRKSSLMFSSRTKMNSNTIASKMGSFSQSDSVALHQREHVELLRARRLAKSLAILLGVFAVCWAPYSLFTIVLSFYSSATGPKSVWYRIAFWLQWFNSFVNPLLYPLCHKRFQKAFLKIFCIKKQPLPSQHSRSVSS
ASSAY_METRIC: Ki

- SMILES: "CN1CC[C@H]2CC(=O)[C@H](Cc3ccccc3)[C@H]3CCC[C@@H]1[C@H]23"
  Ki: "> 10 µM"

Now, please, on to the next compound.
For the compound CCCN1CC[C@H]2c3cc4ccc(C(F)(F)F)cc4nc3[C@H](CC)[C@H]3CCC[C@@H]1[C@@H]32 , what Ki is on record?
> 10 µM

---

Listed here: items and their measured Ki.
TESTED_SYSTEM: Sodium-dependent noradrenaline transporter (Homo sapiens, UniProt P23975)
Sequence (P23975 whole entry): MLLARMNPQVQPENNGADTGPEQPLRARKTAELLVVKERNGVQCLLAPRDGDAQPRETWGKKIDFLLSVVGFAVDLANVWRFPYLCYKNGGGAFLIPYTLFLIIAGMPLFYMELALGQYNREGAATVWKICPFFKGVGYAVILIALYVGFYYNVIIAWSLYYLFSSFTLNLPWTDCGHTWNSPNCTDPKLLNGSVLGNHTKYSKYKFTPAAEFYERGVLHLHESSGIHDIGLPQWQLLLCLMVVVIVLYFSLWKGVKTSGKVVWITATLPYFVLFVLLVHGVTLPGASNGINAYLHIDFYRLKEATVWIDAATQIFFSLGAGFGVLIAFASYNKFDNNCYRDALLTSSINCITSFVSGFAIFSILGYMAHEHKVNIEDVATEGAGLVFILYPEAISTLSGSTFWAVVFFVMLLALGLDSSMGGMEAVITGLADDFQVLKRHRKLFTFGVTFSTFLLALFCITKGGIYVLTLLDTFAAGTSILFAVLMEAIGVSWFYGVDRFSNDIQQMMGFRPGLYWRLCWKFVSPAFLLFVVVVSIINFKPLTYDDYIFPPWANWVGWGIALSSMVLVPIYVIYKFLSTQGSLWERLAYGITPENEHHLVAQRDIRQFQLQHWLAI

- SMILES: "CN1CC[C@H]2CC(=O)[C@H](Cc3ccccc3)[C@H]3CCC[C@@H]1[C@H]23"
  Ki: "> 10 µM"

Notebook entry, Sodium-dependent noradrenaline transporter (Homo sapiens, UniProt P23975) assay: Ki of CCCN1CC[C@H]2c3cc4ccc(C(F)(F)F)cc4nc3[C@H](CC)[C@H]3CCC[C@@H]1[C@@H]32 = ?
> 10 µM

---

Reported Ki is given for each of the following compounds.
Protein target, amino acids: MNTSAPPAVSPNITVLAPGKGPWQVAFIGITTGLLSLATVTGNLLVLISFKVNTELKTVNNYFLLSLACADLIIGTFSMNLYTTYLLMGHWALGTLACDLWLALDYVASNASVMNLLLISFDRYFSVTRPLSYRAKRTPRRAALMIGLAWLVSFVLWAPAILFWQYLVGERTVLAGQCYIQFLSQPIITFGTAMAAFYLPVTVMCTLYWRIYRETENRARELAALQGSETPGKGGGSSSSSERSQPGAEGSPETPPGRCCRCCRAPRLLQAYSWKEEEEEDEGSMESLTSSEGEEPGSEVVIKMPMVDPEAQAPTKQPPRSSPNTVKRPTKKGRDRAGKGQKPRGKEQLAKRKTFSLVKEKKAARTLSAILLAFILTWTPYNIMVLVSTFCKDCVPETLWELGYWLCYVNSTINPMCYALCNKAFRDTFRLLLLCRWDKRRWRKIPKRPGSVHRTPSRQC

- SMILES: "CCCN1CC[C@H]2c3cc4ccc(C(F)(F)F)cc4nc3[C@H](CC)[C@H]3CCC[C@@H]1[C@@H]32"
  Ki: "> 10 µM"

What value of Ki has been reported for the following compound? CN1CC[C@H]2CC(=O)[C@H](Cc3ccccc3)[C@H]3CCC[C@@H]1[C@H]23
> 10 µM

---

Target protein (sequence): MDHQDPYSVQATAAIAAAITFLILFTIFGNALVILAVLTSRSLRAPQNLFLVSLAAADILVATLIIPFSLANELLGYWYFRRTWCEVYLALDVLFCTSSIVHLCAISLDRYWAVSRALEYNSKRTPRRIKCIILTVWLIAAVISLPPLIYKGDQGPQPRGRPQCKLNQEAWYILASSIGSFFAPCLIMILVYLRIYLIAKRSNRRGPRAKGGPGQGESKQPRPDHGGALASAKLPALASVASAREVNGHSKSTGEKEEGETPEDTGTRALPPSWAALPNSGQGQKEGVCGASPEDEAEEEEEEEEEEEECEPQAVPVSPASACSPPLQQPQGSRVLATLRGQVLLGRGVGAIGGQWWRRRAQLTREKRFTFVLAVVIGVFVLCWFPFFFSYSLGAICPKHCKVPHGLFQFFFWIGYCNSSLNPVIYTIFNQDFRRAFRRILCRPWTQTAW
ASSAY_METRIC: pKi
To interpret pKi, take it as minus log10 of a concentration measured in moles per litre.

Give the measured pKi of CCCN1CC[C@H]2c3cc4ccc(C(F)(F)F)cc4nc3[C@H](CC)[C@H]3CCC[C@@H]1[C@@H]32 .
5.98

---

Below are molecules with their Ki as measured on 5-hydroxytryptamine receptor 1E (Homo sapiens, UniProt P28566).
Sequence (P28566 whole entry): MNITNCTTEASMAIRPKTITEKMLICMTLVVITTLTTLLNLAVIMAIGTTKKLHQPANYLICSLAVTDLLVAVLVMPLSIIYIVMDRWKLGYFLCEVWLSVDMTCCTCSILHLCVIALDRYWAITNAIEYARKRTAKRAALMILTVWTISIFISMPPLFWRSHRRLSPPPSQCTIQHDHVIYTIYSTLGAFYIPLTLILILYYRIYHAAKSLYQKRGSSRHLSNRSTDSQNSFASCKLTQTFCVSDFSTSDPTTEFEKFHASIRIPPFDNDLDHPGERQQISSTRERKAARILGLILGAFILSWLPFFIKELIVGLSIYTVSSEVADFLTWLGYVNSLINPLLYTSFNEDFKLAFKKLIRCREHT

- SMILES: "CCCN1CC[C@H]2c3cc4ccc(C(F)(F)F)cc4nc3[C@H](CC)[C@H]3CCC[C@@H]1[C@@H]32"
  ASSAY_METRIC: "Ki"
  TEST_RESULT: "> 10 µM"

Below: the item to evaluate.
Short answer please: Ki, 5-hydroxytryptamine receptor 1E (Homo sapiens, UniProt P28566), entry CN1CC[C@H]2CC(=O)[C@H](Cc3ccccc3)[C@H]3CCC[C@@H]1[C@H]23
> 10 µM

---

Consider the following molecules and their measured Ki readings.
TESTED_SYSTEM: D(2) dopamine receptor (Homo sapiens, UniProt P14416)
Sequence (P14416 whole entry): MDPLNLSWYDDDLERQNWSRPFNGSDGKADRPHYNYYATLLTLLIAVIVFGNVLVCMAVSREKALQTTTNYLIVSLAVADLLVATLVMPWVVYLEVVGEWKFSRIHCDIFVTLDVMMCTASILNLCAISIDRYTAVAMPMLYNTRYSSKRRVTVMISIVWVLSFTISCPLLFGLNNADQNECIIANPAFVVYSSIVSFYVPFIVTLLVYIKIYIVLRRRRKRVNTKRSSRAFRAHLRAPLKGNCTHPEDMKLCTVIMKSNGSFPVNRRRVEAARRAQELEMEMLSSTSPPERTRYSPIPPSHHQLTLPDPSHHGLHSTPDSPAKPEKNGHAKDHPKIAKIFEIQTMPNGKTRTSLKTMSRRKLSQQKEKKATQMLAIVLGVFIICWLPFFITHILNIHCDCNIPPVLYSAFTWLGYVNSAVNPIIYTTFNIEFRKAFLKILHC
PROTOCOL_DETAILS: Displacement of [3H]N-methylspiperone from human D2 receptor expressed in fibroblast cells measured after 90 mins by microbeta scintillation counting method

- SMILES: "CCCN1CC[C@H]2c3cc4ccc(C(F)(F)F)cc4nc3[C@H](CC)[C@H]3CCC[C@@H]1[C@@H]32"
  TEST_RESULT: "> 10 µM"

State its Ki on D(2) dopamine receptor (Homo sapiens, UniProt P14416): CN1CC[C@H]2CC(=O)[C@H](Cc3ccccc3)[C@H]3CCC[C@@H]1[C@H]23
> 10 µM

---

pKi overview
TESTED_SYSTEM: Sigma non-opioid intracellular receptor 1 (Cavia porcellus)
Sequence (Q60492 whole entry): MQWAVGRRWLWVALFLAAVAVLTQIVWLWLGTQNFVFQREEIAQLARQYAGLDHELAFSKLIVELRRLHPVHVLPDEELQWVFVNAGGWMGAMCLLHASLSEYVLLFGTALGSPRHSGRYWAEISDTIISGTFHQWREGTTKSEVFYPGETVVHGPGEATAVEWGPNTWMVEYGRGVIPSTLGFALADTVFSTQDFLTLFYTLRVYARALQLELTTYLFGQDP
PROTOCOL_DETAILS: Displacement of [3H]pentazocine from guinea pig sigma1 receptor measured after 90 mins by microbeta scintillation counting method
# pKi is unitless: minus log10 of the molar concentration; print number only

- SMILES: "O=C1C[C@@H]2CCN(Cc3nccs3)[C@@H]3CCC[C@@H]([C@@H]23)[C@H]1Cc1ccccc1"
  TESTED_SYSTEM: "Sigma non-opioid intracellular receptor 1 (Cavia porcellus)"
  ASSAY_METRIC: "pKi"
  TEST_RESULT: 8.52

Given the molecule COCCN1CC[C@H]2CC(=O)[C@H](Cc3ccccc3)[C@H]3CCC[C@@H]1[C@H]23 , what is its reported pKi?
8.70

Param item = CCCN1CC[C@H]2C[C@@H](O)[C@H](CC)[C@H]3CCC[C@@H]1[C@H]23 ; retrieve measured pKi.
7.26

// returns reported pKi for input O=C1C[C@@H]2CCN(CC3CCCCC3)[C@@H]3CCC[C@@H]([C@@H]23)[C@H]1Cc1ccccc1
8.52

---

Target protein (sequence): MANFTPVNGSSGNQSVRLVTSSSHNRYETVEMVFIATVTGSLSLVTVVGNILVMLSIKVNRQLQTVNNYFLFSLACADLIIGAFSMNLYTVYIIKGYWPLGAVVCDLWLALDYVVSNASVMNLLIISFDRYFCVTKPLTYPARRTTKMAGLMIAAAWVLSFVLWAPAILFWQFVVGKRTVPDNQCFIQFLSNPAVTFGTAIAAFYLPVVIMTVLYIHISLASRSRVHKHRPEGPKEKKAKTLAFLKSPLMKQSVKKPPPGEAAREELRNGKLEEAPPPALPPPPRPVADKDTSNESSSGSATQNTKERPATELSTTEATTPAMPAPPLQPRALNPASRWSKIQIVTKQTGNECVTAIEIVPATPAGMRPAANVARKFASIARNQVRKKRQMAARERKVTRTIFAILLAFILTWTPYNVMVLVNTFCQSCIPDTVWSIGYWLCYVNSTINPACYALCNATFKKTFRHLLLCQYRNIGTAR
ASSAY_METRIC: Ki

- SMILES: "CN1CC[C@H]2CC(=O)[C@H](Cc3ccccc3)[C@H]3CCC[C@@H]1[C@H]23"
  Ki: "> 10 µM"

Any idea what its Ki is? The compound is CCCN1CC[C@H]2c3cc4ccc(C(F)(F)F)cc4nc3[C@H](CC)[C@H]3CCC[C@@H]1[C@@H]32
> 10 µM

---

Histamine H1 receptor (Homo sapiens, UniProt P35367) measurements of pKi, listed per entry.
Sequence (P35367 whole entry): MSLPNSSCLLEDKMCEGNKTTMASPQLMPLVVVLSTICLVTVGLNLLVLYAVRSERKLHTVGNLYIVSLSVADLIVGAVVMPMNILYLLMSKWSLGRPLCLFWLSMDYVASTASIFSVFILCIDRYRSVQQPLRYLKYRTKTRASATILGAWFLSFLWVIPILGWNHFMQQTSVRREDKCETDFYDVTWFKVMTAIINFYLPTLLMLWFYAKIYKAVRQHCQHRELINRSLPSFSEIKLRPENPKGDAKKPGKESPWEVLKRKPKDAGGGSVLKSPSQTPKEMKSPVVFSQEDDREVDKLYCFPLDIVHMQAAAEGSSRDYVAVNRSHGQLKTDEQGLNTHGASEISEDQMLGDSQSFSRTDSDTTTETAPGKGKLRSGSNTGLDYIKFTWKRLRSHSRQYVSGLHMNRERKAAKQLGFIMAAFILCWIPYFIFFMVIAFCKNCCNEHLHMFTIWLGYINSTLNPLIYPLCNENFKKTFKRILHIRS
pKi: −log10 of the molar value.

- SMILES: "CN1CC[C@H]2CC(=O)[C@H](Cc3ccccc3)[C@H]3CCC[C@@H]1[C@H]23"
  TEST_RESULT: "< 5.00"

Please find the next molecule below.
Can you share its pKi? I mean this molecule: CCCN1CC[C@H]2c3cc4ccc(C(F)(F)F)cc4nc3[C@H](CC)[C@H]3CCC[C@@H]1[C@@H]32
< 5.00

---

What follows is a record of Ki for 5-hydroxytryptamine receptor 1B (Homo sapiens).

- SMILES: "CCCN1CC[C@H]2c3cc4ccc(C(F)(F)F)cc4nc3[C@H](CC)[C@H]3CCC[C@@H]1[C@@H]32"
  Ki: "> 10 µM"

--- query ---
What reported Ki corresponds to CN1CC[C@H]2CC(=O)[C@H](Cc3ccccc3)[C@H]3CCC[C@@H]1[C@H]23 on 5-hydroxytryptamine receptor 1B (Homo sapiens)?
> 10 µM

---

TESTED_SYSTEM: Sodium-dependent dopamine transporter (Homo sapiens, UniProt Q01959)
Sequence (Q01959 whole entry): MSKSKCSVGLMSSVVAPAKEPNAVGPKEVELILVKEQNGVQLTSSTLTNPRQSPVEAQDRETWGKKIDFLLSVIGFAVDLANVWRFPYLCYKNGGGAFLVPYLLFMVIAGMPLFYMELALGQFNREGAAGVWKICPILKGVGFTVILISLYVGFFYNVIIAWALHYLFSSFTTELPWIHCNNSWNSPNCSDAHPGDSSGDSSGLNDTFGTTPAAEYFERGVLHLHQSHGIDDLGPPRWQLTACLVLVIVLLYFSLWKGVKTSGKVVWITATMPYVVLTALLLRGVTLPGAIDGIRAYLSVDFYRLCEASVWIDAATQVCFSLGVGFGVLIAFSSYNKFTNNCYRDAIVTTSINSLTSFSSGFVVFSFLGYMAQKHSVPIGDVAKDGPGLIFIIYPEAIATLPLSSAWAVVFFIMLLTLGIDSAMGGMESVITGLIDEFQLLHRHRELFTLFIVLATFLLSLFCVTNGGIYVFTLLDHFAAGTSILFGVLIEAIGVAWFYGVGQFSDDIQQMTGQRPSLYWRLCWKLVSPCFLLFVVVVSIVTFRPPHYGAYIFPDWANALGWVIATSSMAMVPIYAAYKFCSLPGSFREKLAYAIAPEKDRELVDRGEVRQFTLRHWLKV
ASSAY_METRIC: Ki (µM)
Form entry: value (µM) — number only.

Recorded Ki for CN1CC[C@H]2CC(=O)[C@H](Cc3ccccc3)[C@H]3CCC[C@@H]1[C@H]23 , please?
2.18
